Data origin, for the record: patent US12441726B2

- Tested target: BRG-1 (Homo sapiens)
- Assay method text: ATPase catalytic activity assay (ADP-Glo), BRG-1
- Assay conditions: 1 h, read-out: BRG1 Max % Inhibition, ADP-Glo, 30 nM BRG-1, 400 μM ATP
Classification field: rule met = Emax at or over 80%; rule not met = Emax under 80%.

Prompt: API: above_or_equal(metric=Emax, cutoff=80%) for item `Cn1ncc2c1CCN(c1ccc3cnc(CNC(=O)c4ccc5c(c4)[C@](C)(C#N)COC5)cc3n1)C2`
Response: rule not met

Prompt: Repeat for the following molecule: `CN(C)c1cccc(-c2ccc3cnc(CNC(=O)c4ccc5c(c4)[C@](C)(F)COC5)cc3n2)n1`
Response: rule met

Prompt: Repeat for the following molecule: `COCCOCCNC(=O)c1cccc(-c2ccc3cnc(CNC(=O)c4ccc5c(c4)[C@](C)(C#N)COC5)cc3n2)c1`
Response: rule met

Prompt: Repeat for the following molecule: `C[C@@]1(C#N)COCc2ccc(C(=O)NCc3cc4c(cn3)CCN(c3cncc(N5CCOCC5)n3)C4)cc21`
Response: rule met

Prompt: Repeat for the following molecule: `C[C@@]1(C#N)COCc2ccc(C(=O)NCc3cc4nc(-n5cccc(C6CC6)c5=O)ccc4cn3)cc21`
Response: rule not met

Prompt: Repeat for the following molecule: `C[C@@]1(F)COCc2ccc(C(=O)NCc3cc4nc(-c5ccnc(N6CCC6)c5F)cnc4cn3)cc21`
Response: rule met

Prompt: Repeat for the following molecule: `O=C(NCc1cc(C#Cc2ccccc2)ccn1)c1ccc2c(c1)[C@](F)(C(F)F)COC2`
Response: rule not met

Prompt: Repeat for the following molecule: `COC1CN(c2cncc(-c3ccc4cnc(CNC(=O)c5ccc6c(c5)[C@](C)(C#N)COC6)cc4n3)n2)C1`
Response: rule met

Prompt: Repeat for the following molecule: `C[C@@]1(C#N)COCc2ccc(C(=O)NCc3cc4nc(-c5cnc6cccnn56)ccc4cn3)cc21`
Response: rule met

Prompt: Repeat for the following molecule: `C[C@@]1(C#N)COCc2ccc(C(=O)NCc3cc(N4Cc5ccccc5C4)ccn3)cc21`
Response: rule not met

----------
- Tested target: BRM (Homo sapiens, UniProt P51531)
- Sequence (P51531 whole entry): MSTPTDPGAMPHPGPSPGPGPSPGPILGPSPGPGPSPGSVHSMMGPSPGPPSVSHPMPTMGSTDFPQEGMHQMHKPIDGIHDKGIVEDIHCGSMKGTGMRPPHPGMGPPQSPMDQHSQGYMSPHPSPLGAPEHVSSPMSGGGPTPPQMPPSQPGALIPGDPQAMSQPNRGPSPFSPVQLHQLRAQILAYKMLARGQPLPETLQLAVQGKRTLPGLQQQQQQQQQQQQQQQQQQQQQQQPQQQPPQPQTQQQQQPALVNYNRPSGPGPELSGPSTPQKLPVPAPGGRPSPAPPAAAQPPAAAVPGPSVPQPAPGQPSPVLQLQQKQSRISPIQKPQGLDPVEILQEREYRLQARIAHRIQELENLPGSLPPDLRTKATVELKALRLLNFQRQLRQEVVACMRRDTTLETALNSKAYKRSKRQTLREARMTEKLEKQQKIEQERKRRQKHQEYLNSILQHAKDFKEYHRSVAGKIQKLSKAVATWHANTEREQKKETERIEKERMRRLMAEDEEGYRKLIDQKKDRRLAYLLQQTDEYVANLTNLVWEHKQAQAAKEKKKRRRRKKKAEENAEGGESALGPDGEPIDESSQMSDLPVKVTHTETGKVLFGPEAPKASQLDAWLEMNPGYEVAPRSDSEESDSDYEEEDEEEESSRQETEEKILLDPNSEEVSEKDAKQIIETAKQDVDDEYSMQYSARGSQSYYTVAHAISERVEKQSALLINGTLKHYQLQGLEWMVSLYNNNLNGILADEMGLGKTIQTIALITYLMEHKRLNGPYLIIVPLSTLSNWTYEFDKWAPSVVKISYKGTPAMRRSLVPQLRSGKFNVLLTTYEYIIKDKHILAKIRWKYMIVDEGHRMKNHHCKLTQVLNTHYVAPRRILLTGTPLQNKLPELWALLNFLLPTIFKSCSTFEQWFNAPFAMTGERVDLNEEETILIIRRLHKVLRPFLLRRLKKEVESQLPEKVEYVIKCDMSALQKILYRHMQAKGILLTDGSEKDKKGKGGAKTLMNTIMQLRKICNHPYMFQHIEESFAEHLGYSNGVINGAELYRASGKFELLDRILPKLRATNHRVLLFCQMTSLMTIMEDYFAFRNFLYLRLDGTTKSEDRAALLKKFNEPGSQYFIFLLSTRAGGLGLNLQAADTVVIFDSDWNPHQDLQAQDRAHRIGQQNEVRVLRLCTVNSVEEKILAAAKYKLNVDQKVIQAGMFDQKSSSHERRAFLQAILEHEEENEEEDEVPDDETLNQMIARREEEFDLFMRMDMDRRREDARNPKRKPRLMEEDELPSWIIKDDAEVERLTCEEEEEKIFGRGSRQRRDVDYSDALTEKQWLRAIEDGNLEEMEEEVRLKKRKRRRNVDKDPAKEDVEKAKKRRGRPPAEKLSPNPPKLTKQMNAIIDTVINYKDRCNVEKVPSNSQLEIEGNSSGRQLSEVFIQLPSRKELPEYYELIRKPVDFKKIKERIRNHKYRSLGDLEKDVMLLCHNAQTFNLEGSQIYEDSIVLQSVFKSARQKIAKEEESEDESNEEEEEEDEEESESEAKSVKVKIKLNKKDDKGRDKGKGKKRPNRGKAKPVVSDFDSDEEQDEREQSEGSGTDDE
- Assay method text: ATPase catalytic activity assay (ADP-Glo), BRM
- Assay conditions: BRM ATPase: IC50 (uM), 30 nM BRM, 400 μM ATP
For each record, write down the corresponding IC50.

Prompt: Can you share its IC50? I mean this molecule: `C[C@@]1(C#N)COCc2ccc(C(=O)NCc3cc4nc(-c5cccnc5)sc4cn3)cc21`
Response: 0.1 to 0.5 µM

Prompt: Repeat for the following molecule: `C[C@@]1(C#N)COCc2ccc(C(=O)NCc3cc4nc(-c5ccnc(C6(F)CC6)n5)ccc4cn3)cc21`
Response: < 0.1 µM

Prompt: Repeat for the following molecule: `C[C@@]1(C#N)COCc2ccc(C(=O)NCc3nccc(/C=C/c4ccccc4)c3F)cc21`
Response: 0.1 to 0.5 µM

----------
- Tested target: BRG-1 (Homo sapiens)
- Assay method text: ATPase catalytic activity assay (ADP-Glo), BRG-1
- Assay conditions: 1 h, read-out: BRG1 Max % Inhibition, ADP-Glo, 30 nM BRG-1, 400 μM ATP
For each record, write down the corresponding Emax.
Answer with a number only, understood to be in %.

Prompt: Can you share its Emax? I mean this compound: `COc1ccccc1-c1ccc2cnc(CNC(=O)c3ccc4c(c3)[C@](C)(C#N)COC4)cc2n1`
Response: 93

Prompt: Repeat for the following compound: `COc1cccc(C#Cc2ccnc(CNC(=O)c3ccc4c(c3)[C@](C)(C#N)COC4)c2)c1`
Response: 65

Prompt: Repeat for the following compound: `CNC(=O)c1ccc(-c2ccc3cnc(CNC(=O)c4ccc5c(c4)[C@](C)(C#N)COC5)cc3n2)cc1`
Response: 81

Prompt: Repeat for the following compound: `CCOC(=O)C12CCC(CC1)N(c1ccc3cnc(CNC(=O)c4ccc5c(c4)[C@](C)(C#N)COC5)cc3n1)C2`
Response: 70

----------
- Tested target: BRM (Homo sapiens, UniProt P51531)
- Assay method text: ATPase catalytic activity assay (ADP-Glo), BRM
- Assay conditions: BRM ATPase: IC50 (uM), 30 nM BRM, 400 μM ATP
For each record, write down the corresponding IC50.

Prompt: Can you share its IC50? I mean this molecule: `CC(C)(O)c1cccc(-c2ccc3cnc(CNC(=O)c4ccc5c(c4)[C@](C)(C#N)COC5)cc3n2)n1`
Response: 0.1 to 0.5 µM

Prompt: Repeat for the following molecule: `C[C@@]1(F)COCc2ccc(C(=O)NCc3cc4nc(-c5cccc(N=S(C)(C)=O)n5)ccc4cn3)cc21`
Response: 0.1 to 0.5 µM

Prompt: Repeat for the following molecule: `COc1cncc(-c2ccc3cnc(CNC(=O)c4ccc5c(c4)[C@](C)(C#N)COC5)cc3n2)n1`
Response: < 0.1 µM

Prompt: Repeat for the following molecule: `C[C@@]1(C#N)COCc2ccc(C(=O)NCc3cc4c(cn3)CCN(c3cccc(C(F)F)n3)C4)cc21`
Response: 0.1 to 0.5 µM

Prompt: Repeat for the following molecule: `C[C@@]1(C#N)COCc2ccc(C(=O)NCc3cc4nc(-c5ccnc([C@@H]6CC6(F)F)n5)ccc4cn3)cc21`
Response: < 0.1 µM

Prompt: Repeat for the following molecule: `COc1cc(-c2ccc3cnc(CNC(=O)c4ccc5c(c4)[C@](C)(C#N)COC5)cc3n2)ccn1`
Response: < 0.1 µM

Prompt: Repeat for the following molecule: `COc1nn(C)cc1-c1ccc2cnc(CNC(=O)c3ccc4c(c3)[C@](C)(F)COC4)cc2n1`
Response: < 0.1 µM

Prompt: Repeat for the following molecule: `COc1nn(C)cc1-c1cnc2cnc(CNC(=O)c3ccc4c(c3)[C@](C)(C#N)COC4)cc2c1`
Response: 0.1 to 0.5 µM

Prompt: Repeat for the following molecule: `Cn1ccc2ccc(-c3ccc4cnc(CNC(=O)c5ccc6c(c5)[C@](C)(C#N)COC6)cc4n3)cc2c1=O`
Response: < 0.1 µM

Prompt: Repeat for the following molecule: `COc1nn(C)cc1-c1ccc2cnc(CNC(=O)c3ccc4c(c3)[C@](C)(C#N)COC4)cc2n1`
Response: < 0.1 µM

Prompt: Repeat for the following molecule: `Cn1cc2c(-c3ccc4cnc(CNC(=O)c5ccc6c(c5)[C@](C)(C#N)COC6)cc4n3)cccc2n1`
Response: 0.1 to 0.5 µM

Prompt: Repeat for the following molecule: CC1c2cc(CNC(=O)c3ccc4c(c3)[C@](C)(C#N)COC4)ncc2CCN1c1cncc(C2CC2)n1 (stereo partly shown)
Response: 0.1 to 0.5 µM

Prompt: Repeat for the following molecule: `COCCNC(=O)c1cccc(-c2ccc3cnc(CNC(=O)c4ccc5c(c4)[C@](C)(C#N)COC5)cc3n2)c1`
Response: < 0.1 µM

----------
- Tested target: BRG-1 (Homo sapiens, UniProt P51532)
- Sequence (P51532 whole entry): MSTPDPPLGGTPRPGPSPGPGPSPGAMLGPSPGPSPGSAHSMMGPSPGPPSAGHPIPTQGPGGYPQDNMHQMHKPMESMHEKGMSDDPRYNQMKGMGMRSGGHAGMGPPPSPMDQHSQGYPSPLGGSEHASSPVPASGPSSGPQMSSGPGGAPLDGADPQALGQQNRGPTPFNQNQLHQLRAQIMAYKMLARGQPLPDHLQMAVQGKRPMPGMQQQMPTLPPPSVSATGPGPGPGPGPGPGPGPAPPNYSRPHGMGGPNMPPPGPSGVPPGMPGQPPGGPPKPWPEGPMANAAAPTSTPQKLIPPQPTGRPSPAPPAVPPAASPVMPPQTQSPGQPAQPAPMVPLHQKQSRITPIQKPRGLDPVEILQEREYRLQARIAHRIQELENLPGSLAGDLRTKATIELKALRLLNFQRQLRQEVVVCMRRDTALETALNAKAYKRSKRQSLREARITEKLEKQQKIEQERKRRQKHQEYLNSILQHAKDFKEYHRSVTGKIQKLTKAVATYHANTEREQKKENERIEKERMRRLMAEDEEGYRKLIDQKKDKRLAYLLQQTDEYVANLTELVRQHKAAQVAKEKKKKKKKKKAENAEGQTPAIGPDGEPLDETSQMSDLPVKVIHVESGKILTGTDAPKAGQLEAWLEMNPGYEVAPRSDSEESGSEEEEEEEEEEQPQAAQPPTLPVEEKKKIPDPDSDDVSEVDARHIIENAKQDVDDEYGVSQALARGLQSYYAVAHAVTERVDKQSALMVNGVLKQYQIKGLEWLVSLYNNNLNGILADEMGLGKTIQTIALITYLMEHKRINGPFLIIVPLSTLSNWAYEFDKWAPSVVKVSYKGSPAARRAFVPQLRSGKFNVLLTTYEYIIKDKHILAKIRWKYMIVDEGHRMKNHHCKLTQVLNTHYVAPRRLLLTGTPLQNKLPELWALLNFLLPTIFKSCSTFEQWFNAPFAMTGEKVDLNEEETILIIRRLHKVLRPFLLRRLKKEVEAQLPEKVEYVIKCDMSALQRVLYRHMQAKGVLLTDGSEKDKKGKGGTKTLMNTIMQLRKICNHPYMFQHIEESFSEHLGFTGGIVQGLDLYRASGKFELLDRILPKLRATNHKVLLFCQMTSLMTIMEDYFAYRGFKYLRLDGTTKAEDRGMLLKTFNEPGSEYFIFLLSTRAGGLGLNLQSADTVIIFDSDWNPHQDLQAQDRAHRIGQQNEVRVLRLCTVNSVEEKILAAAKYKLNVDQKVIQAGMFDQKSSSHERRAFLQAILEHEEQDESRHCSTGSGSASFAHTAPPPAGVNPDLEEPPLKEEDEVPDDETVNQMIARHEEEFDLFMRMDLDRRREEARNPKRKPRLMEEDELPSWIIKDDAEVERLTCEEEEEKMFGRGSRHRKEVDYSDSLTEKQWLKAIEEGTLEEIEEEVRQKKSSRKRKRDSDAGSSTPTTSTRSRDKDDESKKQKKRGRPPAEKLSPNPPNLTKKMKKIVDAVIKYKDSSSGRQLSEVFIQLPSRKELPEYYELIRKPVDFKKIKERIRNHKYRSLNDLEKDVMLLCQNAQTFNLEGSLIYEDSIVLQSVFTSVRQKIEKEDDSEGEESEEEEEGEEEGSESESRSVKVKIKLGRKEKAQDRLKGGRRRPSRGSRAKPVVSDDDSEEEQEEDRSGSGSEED
- Assay method text: ATPase catalytic activity assay (ADP-Glo), BRG-1
Recorded metric: IC50

Prompt: Can you share its IC50? I mean this compound: `CN1C[C@@](C)(C#N)c2cc(C(=O)NCc3cc4nc(-c5ccccc5)ccc4cn3)ccc21`
Response: > 1000 nM

Prompt: Repeat for the following compound: `Cn1cc(-c2ccc3cnc(CNC(=O)c4ccc5c(c4)[C@](C)(C#N)COC5)cc3n2)c(F)n1`
Response: 500 to 1000 nM

Prompt: Repeat for the following compound: C[C@@]1(C#N)COCc2ccc(C(=O)NCc3cc(N4CCC(O)(c5ccccc5)C4)ccn3)cc21 (stereo partly shown)
Response: > 1000 nM

Prompt: Repeat for the following compound: `O=C(NCc1cc(C#Cc2ccccc2)ccn1)c1ccc2c(c1)[C@](F)(C(F)F)COC2`
Response: > 1000 nM

Prompt: Repeat for the following compound: `C[C@@]1(C#N)COCc2ccc(C(=O)NCc3cc4nc(-c5cnc6cccnn56)ccc4cn3)cc21`
Response: 100 to 500 nM

Prompt: Repeat for the following compound: `CN(C)C(=O)c1cccc(-c2ccc3cnc(CNC(=O)c4ccc5c(c4)[C@](C)(C#N)COC5)cc3n2)n1`
Response: > 1000 nM

Prompt: Repeat for the following compound: `COCCn1cc(-c2ccc3cnc(CNC(=O)c4ccc5c(c4)[C@](C)(C#N)COC5)cc3n2)c(OC)n1`
Response: > 1000 nM

Prompt: Repeat for the following compound: `COc1nccc(-c2ccc3cnc(CNC(=O)c4ccc5c(c4)[C@](C)(C#N)COC5)cc3n2)c1F`
Response: 100 to 500 nM

Prompt: Repeat for the following compound: `C[C@H](NC(=O)c1ccc2c(c1)[C@](C)(C#N)COC2)c1cc2nc(-c3ccccc3)ccc2cn1`
Response: > 1000 nM

Prompt: Repeat for the following compound: `C[C@@]1(F)COCc2ncc(C(=O)NCc3cc4nc(-c5cccc(N6CCC6)n5)cnc4cn3)cc21`
Response: 100 to 500 nM

Prompt: Repeat for the following compound: `C[C@@]1(C#N)COCc2ncc(C(=O)NCc3cc4nc(-c5cccc(C(F)F)c5)ccc4cn3)cc21`
Response: 500 to 1000 nM

Prompt: Repeat for the following compound: `C[C@@]1(C#N)COCc2ccc(C(=O)NCc3cc4nc(-c5ccnc(C6CCC6)n5)ccc4cn3)cc21`
Response: 100 to 500 nM

Prompt: Repeat for the following compound: `C[C@@]1(F)COCc2ccc(C(=O)NCc3cc4nc(-c5cccc(N=S(C)(C)=O)n5)ccc4cn3)cc21`
Response: 500 to 1000 nM

Prompt: Repeat for the following compound: `C[C@@]1(C#N)COCc2ccc(C(=O)NCc3cc4nc(N5CCCN(C6CCC6)C5=O)ccc4cn3)cc21`
Response: > 1000 nM

Prompt: Repeat for the following compound: `C[C@@]1(F)COCc2ccc(C(=O)NCc3cc4nc(-c5ccnc(C6CC6)n5)cnc4cn3)cc21`
Response: 500 to 1000 nM

Prompt: Repeat for the following compound: `CN1CCCc2c(-c3ccc4cnc(CNC(=O)c5ccc6c(c5)[C@](C)(C#N)COC6)cc4n3)cccc21`
Response: 500 to 1000 nM

Prompt: Repeat for the following compound: `COc1cccc(/C=C/c2ccnc(CNC(=O)c3ccc4c(c3)[C@](C)(C#N)COC4)c2)c1`
Response: > 1000 nM

Prompt: Repeat for the following compound: `C[C@@]1(C#N)COCc2ccc(C(=O)NCc3cc4nc(-c5cncc(C6CC6)n5)ccc4cn3)cc21`
Response: 100 to 500 nM

Prompt: Repeat for the following compound: `C[C@@]1(F)COCc2ccc(C(=O)NCc3cc4nc(-c5cccc(C6(O)CC(F)(F)C6)n5)ccc4cn3)cc21`
Response: 100 to 500 nM

Prompt: Repeat for the following compound: `Cn1cc2c(-c3ccc4cnc(CNC(=O)c5ccc6c(c5)[C@](C)(C#N)COC6)cc4n3)cccc2n1`
Response: 500 to 1000 nM

Prompt: Repeat for the following compound: `Cn1ccc2nc(-c3ccc4cnc(CNC(=O)c5ccc6c(c5)[C@](C)(C#N)COC6)cc4n3)sc2c1=O`
Response: 100 to 500 nM

Prompt: Repeat for the following compound: `C[C@]1(F)CCCc2ncc(C(=O)NCc3cc4nc(-c5cncc(C6CC6)n5)ccc4cn3)cc21`
Response: > 1000 nM

Prompt: Repeat for the following compound: `Cn1ncc2ccc(-c3ccc4cnc(CNC(=O)c5ccc6c(c5)[C@](C)(C#N)COC6)cc4n3)cc21`
Response: 500 to 1000 nM

Prompt: Repeat for the following compound: `C[C@@]1(C#N)COCc2ccc(C(=O)NCc3cc([C@H]4C[C@@H](c5cccc(N6CCOCC6)n5)C4)ccn3)cc21`
Response: > 1000 nM

Prompt: Repeat for the following compound: `COc1cccc(C#Cc2ccnc(CNC(=O)c3ccc4c(c3)[C@](C)(C#N)COC4)c2)c1`
Response: > 1000 nM
